Data credit: patent US20240317847A1

Known RGA IC50 of a selection of binders
Biological target: T1, human IL-11 (human, UniProt P20809 22-199)
T1 sequence: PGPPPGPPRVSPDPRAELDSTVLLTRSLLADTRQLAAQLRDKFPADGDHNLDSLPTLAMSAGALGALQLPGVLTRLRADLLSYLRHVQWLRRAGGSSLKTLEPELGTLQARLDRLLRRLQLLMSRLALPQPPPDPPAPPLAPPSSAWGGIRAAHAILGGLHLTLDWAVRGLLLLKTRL
Assay: cell-based or functional assay
Please reply with the bare figure in nM and do not write the unit itself.

Here are 2 binders together with their reported answers.
binder	measurement.unit	RGA IC50
TPP-26302 (antibody, V domains shown) VH: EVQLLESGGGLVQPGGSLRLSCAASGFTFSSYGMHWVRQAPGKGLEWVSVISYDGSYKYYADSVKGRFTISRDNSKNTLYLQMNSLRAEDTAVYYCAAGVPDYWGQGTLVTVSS VL: QSVLTQPPSASGTPGQRVTISCTGSSSNIGAGYDVHWYQQLPGTAPKLLIYSNNERPSGVPDRFSGSKSGTSASLAISGLRSEDEADYYCSAWDDSLNGPVFGGGTKLTVL	nM	22
TPP-26317 (antibody, V domains shown) VH: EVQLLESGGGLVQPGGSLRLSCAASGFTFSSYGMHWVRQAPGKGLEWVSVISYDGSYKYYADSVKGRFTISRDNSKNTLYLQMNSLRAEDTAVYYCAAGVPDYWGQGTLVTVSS VL: QSVLTQPPSASGTPGQRVTISCTGSSSNIGAEYDVHWYQQLPGTAPKLLIYSNNERPSGVPDRFSGSKSGTSASLAISGLRSEDEADYYCAAWDDSLNGPVFGGGTKLTVL	nM	0.99

Here is the next item to consider.
Query RGA IC50 for TPP-26329 (antibody, V domains shown) VH: EVQLLESGGGLVQPGGSLRLSCAASGFTFSSWGMHWVRQAPGKGLEWVSVISYDGSYKYYADSVKGRFTISRDNSKNTLYLQMNSLRAEDTAVYYCAAGVPDYWGQGTLVTVSS VL: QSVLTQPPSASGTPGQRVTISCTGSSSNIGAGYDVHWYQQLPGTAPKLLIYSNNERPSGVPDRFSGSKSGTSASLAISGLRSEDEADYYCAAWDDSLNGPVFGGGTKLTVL
2.6
